fraction unbound reference
- method summary: Mouse brain uptake assay (MBUA), 3 mg/kg IV, 0-1 h, 3 time points
- Assay type: in vivo, male CD1 mice
- condition parameters: mouse; fraction unbound to brain proteins; read-out: Fu (b) %
parameter: fraction unbound

compound	parameter	assay value
CN1CCN(c2cccc3nc([C@H]4CCC[C@@H](c5ncccc5Cl)N4)[nH]c23)CC1 (racemic) [I-122]	fraction unbound	0.035
COc1cccnc1[C@@H]1CCC[C@H](c2nc3cccc(N4CCN(C)CC4)c3[nH]2)N1 [I-127]	fraction unbound	0.048
Cc1cccnc1[C@@H]1CCC[C@H](c2nc3cccc(N4CCN(C)CC4)c3[nH]2)N1 [I-83]	fraction unbound	0.018
Cc1cccnc1[C@@H]1CCC[C@H](c2nc3ccccc3n2CC2CCN(C)CC2)N1C [I-15]	fraction unbound	0.004
Cc1cccnc1[C@@H]1CCC[C@H](c2nc3ccccc3n2CC2CCN(C(C)C)CC2)N1C [I-23]	fraction unbound	0.002
Cc1cccnc1[C@@H]1CCC[C@H](c2nc3cccc(N4CCN(C)C5(CC5)C4)c3[nH]2)N1 [I-132]	fraction unbound	0.01
CN1CCN(c2cccc3nc([C@H]4CCC[C@@H](c5ncccc5Cl)N4C)[nH]c23)CC1 [I-9]	fraction unbound	0.016
